Tested on: biotinyl-Phe-oxazolone
protocolDetails: self-aminoacylation, catalytic enhancement (BFO) (fold over background); higher = more active; k-Seq, kA / k0A0; sequences stand for … in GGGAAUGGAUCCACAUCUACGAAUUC…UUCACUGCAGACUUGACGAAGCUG
This sample holds only a part of the variants without activity.
reportedMetric: self-aminoacylation
API note: the answer field is a bare number with no unit suffix.

self-aminoacylation lookup needed for CUACACUUCAAGCAAUGGGUC [Fam1B.1 aminoacylation ribozyme variant] , thanks. 0.544

self-aminoacylation lookup needed for AACUUUGCUAAUAGUCGCACG [Fam3.1 aminoacylation ribozyme variant] , thanks. 3.22

self-aminoacylation lookup needed for CCACAAUUCAAGAAAUCGGUC [Fam1B.1 aminoacylation ribozyme variant] , thanks. 1.38

self-aminoacylation lookup needed for CUACUUCAUAAAAUCGGUCUG [Fam1A.1 aminoacylation ribozyme variant] , thanks. 0.567

self-aminoacylation lookup needed for CCACAUUUCUAGCAAUCGGUC [Fam1B.1 aminoacylation ribozyme variant] , thanks. 1.49

self-aminoacylation lookup needed for CUUAUUCAAACAAUCGGUCUG [Fam1A.1 aminoacylation ribozyme variant] , thanks. 7.03

self-aminoacylation lookup needed for AGUCCCCUGGUCAUCGAGUGA [Fam2.1 aminoacylation ribozyme variant] , thanks. 42.6

self-aminoacylation lookup needed for AAGUUCGCUAAUAGUGGCAAG [Fam3.1 aminoacylation ribozyme variant] , thanks. 0.484

self-aminoacylation lookup needed for AAGUAUGCUCAUAGUCGCAAG [Fam3.1 aminoacylation ribozyme variant] , thanks. 4.07

self-aminoacylation lookup needed for AUUACCCUGGUCUUCCAGUGA [Fam2.1 aminoacylation ribozyme variant] , thanks. 31.7

self-aminoacylation lookup needed for AAGUUUUCUAAUAGUAGCAAG [Fam3.1 aminoacylation ribozyme variant] , thanks. 2.5

self-aminoacylation lookup needed for CCACACUUCUAGCAAUUGGUC [Fam1B.1 aminoacylation ribozyme variant] , thanks. 0.539

self-aminoacylation lookup needed for UAGUUUGGUAAUAGUCGCAAG [Fam3.1 aminoacylation ribozyme variant] , thanks. 2.29

self-aminoacylation lookup needed for AAGUUUGAUAAUAGUCGCAAA [Fam3.1 aminoacylation ribozyme variant] , thanks. 1.22

self-aminoacylation lookup needed for CUACUUCAAACAAUAGGUCGG [Fam1A.1 aminoacylation ribozyme variant] , thanks. 0.7

self-aminoacylation lookup needed for AAUUUUGCUAAUAGUCGCAAG [Fam3.1 aminoacylation ribozyme variant] , thanks. 5

self-aminoacylation lookup needed for CCACACUUCCAGCAAUCGGUG [Fam1B.1 aminoacylation ribozyme variant] , thanks. 18.9

self-aminoacylation lookup needed for GAGUAUGCUAAUAGUCGCAAG [Fam3.1 aminoacylation ribozyme variant] , thanks. 6.5

self-aminoacylation lookup needed for CCACACUGCAAGCAAUCGGUA [Fam1B.1 aminoacylation ribozyme variant] , thanks. 0.894

self-aminoacylation lookup needed for AUUUACCUAGGUCAUCGUGUG [Fam2.2 aminoacylation ribozyme variant] , thanks. 1.75

self-aminoacylation lookup needed for CUACUUCACACAAUCGGCCUG [Fam1A.1 aminoacylation ribozyme variant] , thanks. 0.896

self-aminoacylation lookup needed for CAACACUCCAAGCAAUCGGUC [Fam1B.1 aminoacylation ribozyme variant] , thanks. 1.67

self-aminoacylation lookup needed for AAGUAUGCUGAUAGUCGCAAG [Fam3.1 aminoacylation ribozyme variant] , thanks. 1.92

self-aminoacylation lookup needed for CCACUUCAAACAAUCGGUCAG [Fam1A.1 aminoacylation ribozyme variant] , thanks. 13.7

self-aminoacylation lookup needed for CUUACCCUGGUCAUCGAGUCA [Fam2.1 aminoacylation ribozyme variant] , thanks. 0.627

self-aminoacylation lookup needed for CCAAACUUCAAGCGAUCGGUC [Fam1B.1 aminoacylation ribozyme variant] , thanks. 1.09

self-aminoacylation lookup needed for CAGUUUGCUAAUAAUCGCAAG [Fam3.1 aminoacylation ribozyme variant] , thanks. 1.1

self-aminoacylation lookup needed for AUCACCCUGGUCAUCUAGUGA [Fam2.1 aminoacylation ribozyme variant] , thanks. 85

self-aminoacylation lookup needed for CCUCACAUCAAGCAAUCGGUC [Fam1B.1 aminoacylation ribozyme variant] , thanks. 1.77

self-aminoacylation lookup needed for AAGCUUGCAAAUAGUCGCAAG [Fam3.1 aminoacylation ribozyme variant] , thanks. 7.03

self-aminoacylation lookup needed for CUCCUUCAAACAAUCGGUCCG [Fam1A.1 aminoacylation ribozyme variant] , thanks. 6.9

self-aminoacylation lookup needed for AAGUUUCCUAAUUGUCGCAAG [Fam3.1 aminoacylation ribozyme variant] , thanks. 0.96

self-aminoacylation lookup needed for AAAUUUGCCAAUAGUCGCAAG [Fam3.1 aminoacylation ribozyme variant] , thanks. 2.17

self-aminoacylation lookup needed for GUUACCCUGGUCAUUGAGUGA [Fam2.1 aminoacylation ribozyme variant] , thanks. 71.3

self-aminoacylation lookup needed for CUUCUUCAAACAAUCGGUGUG [Fam1A.1 aminoacylation ribozyme variant] , thanks. 4.48

====

System: biotinyl-Met-oxazolone
protocolDetails: self-aminoacylation, catalytic enhancement (BMO) (fold over background); higher = more active; k-Seq, kA / k0A0; sequences stand for … in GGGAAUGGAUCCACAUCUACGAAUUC…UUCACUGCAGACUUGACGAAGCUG
This sample holds only a part of the variants without activity.
reportedMetric: self-aminoacylation
API note: the answer field is a bare number with no unit suffix.

self-aminoacylation lookup needed for AUUACCAUGGUCAUUGAGUGA [Fam2.1 aminoacylation ribozyme variant] , thanks. 11.8

self-aminoacylation lookup needed for GAGUUGGCUAAUAGUCGCAAG [Fam3.1 aminoacylation ribozyme variant] , thanks. 2.04

self-aminoacylation lookup needed for AAGUUGGCUAAUGGUCGCAAG [Fam3.1 aminoacylation ribozyme variant] , thanks. 1.28

self-aminoacylation lookup needed for CCAGACUUCAAGCAAUCAGUC [Fam1B.1 aminoacylation ribozyme variant] , thanks. 0.826

self-aminoacylation lookup needed for AUUCCCCUGAUCAUCGAGUGA [Fam2.1 aminoacylation ribozyme variant] , thanks. 6.39

====

Test system: biotinyl-Trp-oxazolone
protocolDetails: self-aminoacylation, catalytic enhancement (BWO) (fold over background); higher = more active; k-Seq, kA / k0A0; sequences stand for … in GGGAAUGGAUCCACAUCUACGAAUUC…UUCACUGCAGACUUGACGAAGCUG
Variants at the floor of the assay were thinned out.
Consider the following sequences; for each one, report its self-aminoacylation.
API note: the answer field is a bare number with no unit suffix.

self-aminoacylation lookup needed for CCACACUUCAAGCAAUCAGUC [Fam1B.1 aminoacylation ribozyme variant] , thanks. 6.45

self-aminoacylation lookup needed for CCACACUUCAAGCAUUUGGUC [Fam1B.1 aminoacylation ribozyme variant] , thanks. 0.912

self-aminoacylation lookup needed for CGACUUCAAACAAUCGGUAUG [Fam1A.1 aminoacylation ribozyme variant] , thanks. 5.6

self-aminoacylation lookup needed for ACGUUUCCUAAUAGUCGCAAG [Fam3.1 aminoacylation ribozyme variant] , thanks. 1.3

self-aminoacylation lookup needed for AAGUUUGCUAAUAGUCGCGCG [Fam3.1 aminoacylation ribozyme variant] , thanks. 5.74

self-aminoacylation lookup needed for CCACACUGCAAGCAAUCGCUC [Fam1B.1 aminoacylation ribozyme variant] , thanks. 1.78

self-aminoacylation lookup needed for CCAAACUUUAAGCAAUCGGUC [Fam1B.1 aminoacylation ribozyme variant] , thanks. 0.664

self-aminoacylation lookup needed for AUCACCCUGGUCAUCGAGUGU [Fam2.1 aminoacylation ribozyme variant] , thanks. 20.2

self-aminoacylation lookup needed for AUUCACCUAGGUCAUCGUGUU [Fam2.2 aminoacylation ribozyme variant] , thanks. 1.62

self-aminoacylation lookup needed for CUACUUCAAAAAAUCGGUCUC [Fam1A.1 aminoacylation ribozyme variant] , thanks. 5.93

self-aminoacylation lookup needed for UUUCACCUGGGUCAUCGGGUG [Fam2.2 aminoacylation ribozyme variant] , thanks. 6.75

self-aminoacylation lookup needed for CCACACUUCAAGCAAUCGGCC [Fam1B.1 aminoacylation ribozyme variant] , thanks. 4.72

self-aminoacylation lookup needed for CUACUUCAGACAAUCGGUCUG [Fam1A.1 aminoacylation ribozyme variant] , thanks. 0.857

self-aminoacylation lookup needed for CUCCUUCAAACAAUCGGCCUG [Fam1A.1 aminoacylation ribozyme variant] , thanks. 61.7

self-aminoacylation lookup needed for AAGUUUGCUGAUAGUCGCAAU [Fam3.1 aminoacylation ribozyme variant] , thanks. 1.87

self-aminoacylation lookup needed for AUGCACCUAUGUCAUCGGGUG [Fam2.2 aminoacylation ribozyme variant] , thanks. 4.24

self-aminoacylation lookup needed for AUUCACCAAGGACAUCGGGUG [Fam2.2 aminoacylation ribozyme variant] , thanks. 4.17

self-aminoacylation lookup needed for AUUACACUGGUAAUCGAGUGA [Fam2.1 aminoacylation ribozyme variant] , thanks. 8.34

====

Tested on: biotinyl-Ile-oxazolone
protocolDetails: self-aminoacylation, catalytic enhancement (BIO) (fold over background); higher = more active; k-Seq, kA / k0A0; sequences stand for … in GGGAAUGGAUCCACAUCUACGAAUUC…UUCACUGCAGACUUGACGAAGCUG
Variants at the floor of the assay were thinned out.
reportedMetric: self-aminoacylation

Look up self-aminoacylation with biotinyl-Ile-oxazolone for this sequence: AUUACCCUGAUCAUCGAGUAA [Fam2.1 aminoacylation ribozyme variant] 1.25

Look up self-aminoacylation with biotinyl-Ile-oxazolone for this sequence: AUUCACCUGGGUCAUCGGGUA [Fam2.2 aminoacylation ribozyme variant] 8.3

Look up self-aminoacylation with biotinyl-Ile-oxazolone for this sequence: AUUCACCAAGGACAUCGGGUG [Fam2.2 aminoacylation ribozyme variant] 3.2

Look up self-aminoacylation with biotinyl-Ile-oxazolone for this sequence: AUUACCCUGGUCAUCGAGUUU [Fam2.1 aminoacylation ribozyme variant] 3.52

Look up self-aminoacylation with biotinyl-Ile-oxazolone for this sequence: AGGUUUGCUACUAGUCGCAAG [Fam3.1 aminoacylation ribozyme variant] 1.35
